Measured pIC50, listed per entry.
# studySystem: SETD2(1434-1711) (Homo sapiens)
# Construct: SETD2 (1434-1711) Assay; catalogue N/A
# testSummary: SETD2 (1434-1711) assay
# Format: biochemical
# conditionLabel: read-out: SETD2 (1434-1711)
pIC50: −log10 of the molar value.
assayEndpoint: pIC50

compound	assayEndpoint	quantitativeReadout
Cc1ccc(F)c2cc(C(=O)NC3CCCC(N4CCC5(CC4)COC(=O)N5)C3)[nH]c12 (stereo not drawn) [compound 963]	pIC50	7.70
Cc1ccc(F)c2cc(C(=O)Nc3cccc(N4CCn5cnnc5C4)c3)[nH]c12 [compound 328]	pIC50	7.40
CC(=O)N1CCCN([C@@H]2CCC[C@@H](NC(=O)c3cc4c(F)ccc(C)c4[nH]3)C2)CC1 [compound 980]	pIC50	6.05

* * *

# studySystem: SETD2(1434-1711) (Homo sapiens, UniProt Q9BYW2)
# Construct: SETD2 (1434-1711) Assay; catalogue N/A
# testSummary: SETD2 (1434-1711) assay
# Assay type: biochemical
# conditionLabel: read-out: SETD2 (1434-1711)

compound	studySystem	IC50
Cc1cccc2cc(C(=O)NCc3ccc(S(=O)(=O)N4CCCCC4)cc3)[nH]c12 [compound 758]	SETD2(1434-1711) (Homo sapiens, UniProt Q9BYW2)	> 200 µM
Cc1cccc2cc(C(=O)N3CCc4ccccc4C3)[nH]c12 [compound 684]	SETD2(1434-1711) (Homo sapiens, UniProt Q9BYW2)	> 50 µM
CC(=O)N(C)CCCN1CCCC(NC(=O)c2cc3c(F)ccc(C)c3[nH]2)C1 (stereo not drawn) [compound 389]	SETD2(1434-1711) (Homo sapiens, UniProt Q9BYW2)	> 10 µM

* * *

# studySystem: SETD2(1434-1711) (Homo sapiens)
# Construct: SETD2 (1434-1711) Assay; catalogue N/A
# Sequence (Q9BYW2 1434-1711): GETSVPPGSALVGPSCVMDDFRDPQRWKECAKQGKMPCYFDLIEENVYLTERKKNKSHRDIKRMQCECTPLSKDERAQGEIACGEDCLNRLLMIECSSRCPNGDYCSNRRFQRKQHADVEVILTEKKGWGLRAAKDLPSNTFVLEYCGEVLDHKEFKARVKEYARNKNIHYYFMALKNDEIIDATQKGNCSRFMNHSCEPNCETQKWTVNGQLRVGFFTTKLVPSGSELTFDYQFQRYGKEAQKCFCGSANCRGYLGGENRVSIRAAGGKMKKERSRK
# testSummary: SETD2 (1434-1711) assay
# Type: biochemical
# conditionLabel: read-out: SETD2 (1434-1711)
assayEndpoint: IC50 (nM)

compound	comparator	quantitativeReadout
CCc1cccc2cc(C(=O)NC(c3ccccn3)C3CC3)[nH]c12 (stereo not drawn)	>	200000
Cc1cccc2cc(C(=O)N3CCCc4ccccc4C3)[nH]c12	=	103000
Cc1ccc(F)c2cc(C(=O)Nc3cccc(N4CC5CCCNC5C4)c3)[nH]c12 (stereo not drawn)	=	7
Cc1ccc(F)c2cc(C(=O)Nc3cccc(OCCN(C)C)c3)[nH]c12	=	70
Cc1nnc(-c2cccc(NC(=O)c3cc4c(F)ccc(C)c4[nH]3)c2)s1	=	20
Cc1cccc2cc(C(=O)NC3CCCN(c4ncccn4)C3)[nH]c12 (stereo not drawn)	=	12500
Cc1ccc(F)c2cc(C(=O)N[C@H]3CCC[C@@H](c4cncnc4)C3)[nH]c12	=	100
Cc1ccc(N2CCOCC2)cc1NC(=O)c1cc2cccc(C)c2[nH]1	=	6500
Cc1ccc(F)c2cc(C(=O)NC3CCCC(N4CCN5C(=O)NCC5C4)C3)[nH]c12 (stereo not drawn) [compound 1050]	=	1000
Cc1ccccc1C(NC(=O)c1cc2cccc(C)c2[nH]1)C1CC1 (stereo not drawn)	>	200000
Cc1cccc2cc(C(=O)N[C@H]3C[C@@H](NC(=O)CCN)C3)[nH]c12	>	50000
CCC(=O)N1CCN(C2CCCC(NC(=O)c3cc4c(F)ccc(C)c4[nH]3)C2)CC1C(F)(F)F (stereo not drawn) [compound 1167]	=	20
Cc1cccc2cc(C(=O)N3CCCC34CCc3ccccc34)[nH]c12 (stereo not drawn)	>	200000
Cc1ccc(F)c2cc(C(=O)Nc3cccc(N(C)C4CCN(C)CC4)c3)[nH]c12	=	90
Cc1ccc(F)c2cc(C(=O)Nc3ccnc(N4CCN(C)CC4)c3)[nH]c12	=	200
Cc1cc(-c2cccnc2)cnc1C(NC(=O)c1cc2cccc(C)c2[nH]1)C1CC1 (stereo not drawn)	=	300
Cc1ccc(F)c2cc(C(=O)N[C@@H]3CCC[C@H](c4cc(=O)[nH]cn4)C3)[nH]c12	=	100
Cc1nc([C@@H]2CCC[C@H](NC(=O)c3cc4c(F)ccc(C)c4[nH]3)C2)no1	=	9100
COC(=O)CC(NC(=O)c1cc2cccc(C)c2[nH]1)c1cccs1 (stereo not drawn)	>	23000
CC(=O)N1CCCC12CCN(c1cc(F)cc(NC(=O)c3cc4c(F)ccc(C)c4[nH]3)c1)CC2	=	30
CC[C@@H]1CN([C@@H]2CCC[C@@H](NC(=O)c3cc4c(F)ccc(C)c4[nH]3)C2)CCN1C(C)=O	=	600
Cc1cccc2cc(C(=O)NCC(C)c3ccccc3N3CCOCC3)[nH]c12 (stereo not drawn)	=	4100
Cc1ccc(F)c2cc(C(=O)Nc3cccc(N4CCOC(C5CC5)C4)c3)[nH]c12 (stereo not drawn)	=	60
Cc1ccc(F)c2cc(C(=O)Nc3cccc(-c4ccc(Cn5ccnc5)cc4)c3)[nH]c12	=	80

Cited source for all entries: patent US12116358B2
